target: PI3Kalpha (Homo sapiens); construct: His (N); experiment: Inhibition of PI3Kalpha-induced PIP-2 phosphorylation (filter-binding assay, 33P-ATP); conditions: PI3 Kinase alpha (p85alpha/His-p110alpha), 1 μM ATP; read-out: IC50 PI3Kα
Sequence (P27986 whole entry): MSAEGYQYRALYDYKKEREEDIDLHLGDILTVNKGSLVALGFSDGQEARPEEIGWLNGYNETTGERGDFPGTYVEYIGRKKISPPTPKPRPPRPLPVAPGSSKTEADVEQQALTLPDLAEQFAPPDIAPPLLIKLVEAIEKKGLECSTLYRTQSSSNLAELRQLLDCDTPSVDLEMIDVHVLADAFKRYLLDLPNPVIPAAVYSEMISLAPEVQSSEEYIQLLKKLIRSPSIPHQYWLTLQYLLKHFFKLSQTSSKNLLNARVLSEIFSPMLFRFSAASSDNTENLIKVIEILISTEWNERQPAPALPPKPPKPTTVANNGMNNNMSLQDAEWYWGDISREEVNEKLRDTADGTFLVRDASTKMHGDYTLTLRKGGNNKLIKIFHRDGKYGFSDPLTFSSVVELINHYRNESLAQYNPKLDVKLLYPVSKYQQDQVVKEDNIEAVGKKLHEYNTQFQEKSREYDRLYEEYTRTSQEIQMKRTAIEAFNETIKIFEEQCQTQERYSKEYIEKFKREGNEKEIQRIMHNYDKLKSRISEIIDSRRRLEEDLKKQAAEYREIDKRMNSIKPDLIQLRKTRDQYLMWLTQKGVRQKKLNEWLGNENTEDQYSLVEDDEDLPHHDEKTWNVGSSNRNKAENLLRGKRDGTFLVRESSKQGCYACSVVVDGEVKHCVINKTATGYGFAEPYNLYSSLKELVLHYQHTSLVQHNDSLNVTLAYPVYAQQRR
Sequence (P42336 whole entry): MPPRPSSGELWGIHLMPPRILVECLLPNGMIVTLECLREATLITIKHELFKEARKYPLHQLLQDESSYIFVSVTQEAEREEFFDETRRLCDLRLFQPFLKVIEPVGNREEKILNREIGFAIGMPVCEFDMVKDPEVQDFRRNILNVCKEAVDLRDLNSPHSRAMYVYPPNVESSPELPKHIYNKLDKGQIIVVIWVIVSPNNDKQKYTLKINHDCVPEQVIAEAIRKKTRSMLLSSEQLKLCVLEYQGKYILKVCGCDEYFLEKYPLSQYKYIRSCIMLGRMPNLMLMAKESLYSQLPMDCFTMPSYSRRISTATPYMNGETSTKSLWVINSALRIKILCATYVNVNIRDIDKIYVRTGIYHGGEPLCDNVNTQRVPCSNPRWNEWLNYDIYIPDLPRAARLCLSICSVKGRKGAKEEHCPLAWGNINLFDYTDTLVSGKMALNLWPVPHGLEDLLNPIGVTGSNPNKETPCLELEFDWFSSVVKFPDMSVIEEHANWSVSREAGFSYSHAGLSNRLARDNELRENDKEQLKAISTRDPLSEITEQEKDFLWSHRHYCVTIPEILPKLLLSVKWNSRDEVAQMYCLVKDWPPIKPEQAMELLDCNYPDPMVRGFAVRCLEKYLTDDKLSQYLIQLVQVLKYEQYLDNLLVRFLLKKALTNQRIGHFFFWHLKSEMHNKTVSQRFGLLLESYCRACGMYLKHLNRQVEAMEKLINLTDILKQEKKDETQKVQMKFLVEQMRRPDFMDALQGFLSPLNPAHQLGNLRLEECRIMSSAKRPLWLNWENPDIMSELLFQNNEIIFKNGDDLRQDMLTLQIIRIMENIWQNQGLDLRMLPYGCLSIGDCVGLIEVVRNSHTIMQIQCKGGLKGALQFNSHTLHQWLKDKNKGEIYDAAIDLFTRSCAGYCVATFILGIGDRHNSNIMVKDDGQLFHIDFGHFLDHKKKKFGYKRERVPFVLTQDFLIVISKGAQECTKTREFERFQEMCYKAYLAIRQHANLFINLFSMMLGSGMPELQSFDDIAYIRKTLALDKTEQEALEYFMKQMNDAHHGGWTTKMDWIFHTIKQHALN
Measured log10 IC50 by item
propertyMeasured: log10 IC50 (log10 of the value in nM)

INSERT INTO results (compound, propertymeasured, valuereported) VALUES
  ('CCc1ncnc(-c2ccnc(C)c2)c1C#Cc1cnc(C)c(NS(=O)(=O)c2ccc(F)cc2Cl)c1 [Example 90]', 'log10 IC50', 0.30),
  ('CCc1nc(N)nc(-c2ccnc(C)c2)c1C#Cc1cnc(C)c(NS(=O)(=O)c2ccc(F)cc2F)c1 [Example 33]', 'log10 IC50', -0.35),
  ('Cc1ncc(C#Cc2c(C)ncnc2-c2cccc(C#N)c2)cc1NS(C)(=O)=O [Example 39]', 'log10 IC50', 0.60),
  ('CCc1ncnc(-c2cccc(OC(C)C)c2)c1C#Cc1cnc(C)c(NS(C)(=O)=O)c1 [Example 64]', 'log10 IC50', 0.30),
  ('CCc1ncnc(-c2cccc(F)c2)c1C#Cc1cnc(C)c(NS(C)(=O)=O)c1 [Example 61]', 'log10 IC50', 0.00),
  ('CCc1ncnc(-c2ccnc(OC)c2)c1C#Cc1cnc(C)c(NS(C)(=O)=O)c1 [Example 76]', 'log10 IC50', -0.04),
  ('CCc1ncnc(-c2cccc(C#N)c2)c1C#Cc1cnc(C)c(NS(C)(=O)=O)c1 [Example 55]', 'log10 IC50', 0.48),
  ('CCc1nc(N)nc(-c2cccc(CN(C)C)c2)c1C#Cc1cnc(C)c(NS(=O)(=O)c2ccc(F)cc2F)c1 [Example 35]', 'log10 IC50', 0.30),
  ('CNC(=O)c1ccc(-c2nc(N)nc(C)c2C#Cc2cnc(C)c(NS(C)(=O)=O)c2)cc1Cl [Example 25]', 'log10 IC50', 0.48),
  ('Cc1cc(-c2ncnc(C)c2C#Cc2cnc(C)c(NS(C)(=O)=O)c2)ccn1 [Example 38]', 'log10 IC50', 0.30),
  ('CCc1ncnc(-c2ccc(F)cc2F)c1C#Cc1cnc(C)c(NS(C)(=O)=O)c1 [Example 63]', 'log10 IC50', 0.60),
  ('CCc1ncnc(-c2cccc(C(F)(F)F)c2OC)c1C#Cc1cnc(C)c(NS(C)(=O)=O)c1 [Example 7]', 'log10 IC50', 0.30),
  ('CCc1ncnc(-c2ccnc(C)c2)c1C#Cc1cnc(C)c(NS(=O)(=O)c2ccccc2Cl)c1 [Example 11]', 'log10 IC50', 0.00),
  ('CCc1ncnc(-c2cccc(CN)c2F)c1C#Cc1cnc(C)c(NS(C)(=O)=O)c1 [Example 79]', 'log10 IC50', 1.64),
  ('CCc1ncnc(-c2cc(C(F)(F)F)ccc2F)c1C#Cc1cnc(C)c(NS(C)(=O)=O)c1 [Example 67]', 'log10 IC50', 1.66),
  ('CCc1nc(N)nc(-c2ccc(C3CC3)nc2)c1C#Cc1cnc(C)c(NS(C)(=O)=O)c1 [Example 13]', 'log10 IC50', -0.13),
  ('CCc1ncnc(-c2ccccc2C)c1C#Cc1cnc(C)c(NS(C)(=O)=O)c1 [Example 60]', 'log10 IC50', 1.57);

Reference source: patent US8466162B2
